# Assay System: KOR receptor (Homo sapiens, UniProt P41145)
# Construct: expressed in transfected cells; host or cells: HEK293
# Sequence (P41145 whole entry): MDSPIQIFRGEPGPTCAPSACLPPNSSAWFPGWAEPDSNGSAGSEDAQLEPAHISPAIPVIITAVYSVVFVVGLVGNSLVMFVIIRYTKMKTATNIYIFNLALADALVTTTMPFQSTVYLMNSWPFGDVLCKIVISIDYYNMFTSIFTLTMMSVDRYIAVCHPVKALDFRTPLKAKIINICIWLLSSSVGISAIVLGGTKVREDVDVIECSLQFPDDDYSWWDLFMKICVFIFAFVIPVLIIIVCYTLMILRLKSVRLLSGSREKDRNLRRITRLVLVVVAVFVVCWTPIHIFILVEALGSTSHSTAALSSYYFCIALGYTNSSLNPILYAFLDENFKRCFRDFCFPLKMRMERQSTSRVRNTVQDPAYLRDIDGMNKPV
# Protocol Description: KOR activity test: HEK293/KOR/CRE luciferase reporter, cAMP levels
# Type: cell-based
# Description: The experiment objective is to determine the activity of the compounds of the present invention on agonizing KOR receptor and DOR receptor, and affecting downstream cAMP levels. […] The activity of the compounds of the present invention on agonizing KOR receptor or DOR receptor and affecting downstream cAMP levels was determined by the above test, and the EC50 values are shown in Table 1.2.
Recorded pEC50 for the following molecules
# pEC50 = -log10(concentration in molar units)

As a guide, the following entries are already answered.
Would you kindly share the measured pEC50 for CO[C@H]1CC[C@H](NCC[C@@]2(c3ccccn3)CCOC3(CCCC3)C2)c2ccccc21 [Example 14] ?
5.83

Bench note: what pEC50 did O=C1CC[C@H](NCC[C@@]2(c3ccccn3)CCOC3(CCCC3)C2)c2ccccc21 [Example 11] show?
6.56

Item under review: CCO[C@H]1CC[C@H](NCC[C@@]2(c3ccccn3)CCOC3(CCCC3)C2)c2ccccc21 [Example 19] . Reported pEC50?
6.06

Others:
Entry COC[C@H]1CC[C@H](NCC[C@@]2(c3ccccn3)CCOC3(CCCC3)C2)c2ccccc21 [Example 22] : reported pEC50 = ?
5.51

Origin of measurements: patent US10442793B2
